Record form. Attribute: growth. Fill in for each entry.
- Tested on: A549/ATCC NSCLC
- Protocol Details: NCI-60 one-dose screen, 48 h (100 = growth as untreated, 0 = no growth, -100 = all killed)
- Protocol Conditions: 10 µM unless noted
Compounds without any hit were thinned out: in the full panel of roughly 83,000, 20% have a hit.
One number for each entry, in %.

> print(dat)
                           molecular.string  reported.measurement
1         Cc1ccc(/C(=N\N=C(N)N)c2ccccc2)cc1                  16.9
2  CC(=O)C(C(C)=O)c1nc2sc3cc(Cl)ccc3n2c(=N)c1C#N                  98.7

Now consider the entry below.
Problem: Observed growth on A549/ATCC NSCLC for CSc1ncc(C)c(Nc2ccc(Cl)cc2)n1 , please.
Solution: 96.4
